This collection of values is drawn from patent US20240090498A1.

# Tested on: Pseudomonas aeruginosa ATCC 15422
# Assay remarks: Vapor phase activity against bacteria (Example 2, growth grading versus control); note: key: −: No Activity (growth); +: Slight Activity (some growth, but much less than control); ++: Medium Activity (pinprick growth); +++: High Activity (no growth)
# Type: cell-based
# Condition description: P.a. 15442; 7.1 or 9.3 mg/L as defined per composition; sealed 7 L box

# Molecule, Vapor Phase Activity Against Bacteria
data = [
    ("CCCC/C=C/C=O [Composition B, trans-2-heptenal]", "+"),
    ("CC/C=C/C=C/C=O [Composition C, 2,4-heptadienal]", "+++"),
    ("CCC/C=C/C=O [Composition A, trans-2-hexenal]", "+++"),
    ("CC/C=C/C=C/C=O [Composition E, 2,4-heptadienal]", "++"),
]
